Tested on: SH-SY5Y cells
Test: Toxicity in SH-SY5Y neuronal cell line, reduction of cell viability (MTT)
Type: cell-based
Settings: 24 h incubation, MTT, concentration reducing viability to 50% of basal
property: SH-SY5Y LD50 (µM)
Numbers only; they are read as µM.

Solved entries (count: 5):
COc1cccc(/C=C/C(=O)Oc2ccc3[nH]cc(CCNC(C)=O)c3c2)c1 | 83
COc1ccc(/C=C/C(=O)Oc2ccc3[nH]cc(CCNC(C)=O)c3c2)cc1 | 60
CC(=O)NCCc1c[nH]c2ccc(OC(=O)/C=C/c3ccc(Br)cc3)cc12 | 60
CC(=O)NCCc1c[nH]c2ccc(OC(=O)/C=C/c3ccc(Cl)c(Cl)c3)cc12 | 51
CC(=O)NCCc1c[nH]c2ccc(OC(=O)/C=C/c3ccc(C(F)(F)F)cc3)cc12 | 70

Briefly, SH-SY5Y LD50 measured for COc1ccccc1/C=C/C(=O)Oc1ccc2[nH]cc(CCNC(C)=O)c2c1 : 64

Briefly, SH-SY5Y LD50 measured for CC(=O)NCCc1c[nH]c2ccc(OC(=O)/C=C/c3ccc(C)cc3)cc12 : 80

====

Tested on: Nrf2 transcription factor (Nrf2-ARE)
Test: Nrf2-ARE induction, luciferase activity in AREc32 (MCF7 cells stably transfected with ARE-LUC)
Type: cell-based
Settings: Homo sapiens, 60 μM, 24 h, basal = 1, read-out: Relative Luciferase activity (response versus basal)
Quick reference: fold induction at 60 µM of the listed items.
Please reply with the value in numeric form only.

CC(=O)NCCc1c[nH]c2ccc(OC(=O)/C=C/c3ccccc3C(F)(F)F)cc12 [Compound 13] | 2.55
CC(=O)NCCc1c[nH]c2ccc(OC(=O)/C=C/c3cccc(C(F)(F)F)c3)cc12 [Compound 14] | 2.13
CC(=O)NCCc1c[nH]c2ccc(OC(=O)/C=C/c3ccc([N+](=O)[O-])cc3)cc12 [Compound 16] | 3.19
CCOC(=O)C=Cc1ccccc1 [Ethyl Cinnamate, reference compound] | 1.55
CC(=O)NCCc1c[nH]c2ccc(OC(=O)/C=C/c3ccc(O)cc3)cc12 [Compound 7] | 1.57

Briefly, fold induction at 60 µM measured for CC(=O)NCCc1c[nH]c2ccc(OC(=O)/C=C/c3ccc(C)cc3)cc12 [Compound 3] : 3.26

Briefly, fold induction at 60 µM measured for COc1cccc(/C=C/C(=O)Oc2ccc3[nH]cc(CCNC(C)=O)c3c2)c1 [Compound 5] : 2.09

Briefly, fold induction at 60 µM measured for CC(=O)NCCc1c[nH]c2ccc(OC(=O)/C=C/c3ccc(Cl)cc3)cc12 [Compound 11] : 3.55

Briefly, fold induction at 60 µM measured for COc1cc(/C=C/C(=O)Oc2ccc3[nH]cc(CCNC(C)=O)c3c2)ccc1O [Compound 8] : 2.36

Briefly, fold induction at 60 µM measured for CC(=O)NCCc1c[nH]c2ccc(OC(=O)/C=C/c3ccc(Br)cc3)cc12 [Compound 10] : 13.3

Briefly, fold induction at 60 µM measured for CC(=O)NCCc1c[nH]c2ccc(OC(=O)/C=C/c3ccccc3)cc12 [Compound 2] : 2.54

Briefly, fold induction at 60 µM measured for CC(=O)NCCc1c[nH]c2ccc(OC(=O)/C=C/c3ccc(F)cc3)cc12 [Compound 9] : 4.21

Briefly, fold induction at 60 µM measured for COc1ccc(/C=C/C(=O)Oc2ccc3[nH]cc(CCNC(C)=O)c3c2)cc1 [Compound 6] : 4.62

Data origin: patent US20180105492A1
